System: KM12 colon
Assay: NCI tumour cell line growth inhibition, 48 h
Observable: TGI

Looking for the measured TGI of `CCOC(=O)c1nc2ccccc2nc1Oc1ccc(C#N)cc1` , can you help? > 100 µM

Try the compound O=C(c1ccccc1)c1ccc2c(c1)nc1n2C(c2c(F)cccc2F)SC1 (configuration not stated) 66.7 µM

Try the compound `COc1ccc(-c2nn(-c3ccc(NC(=O)c4cc(Cl)cc(Cl)c4)cc3)cc2-c2ccncc2)cc1Cl` > 100 µM

Try the compound O=[N+]([O-])c1ccc(C2=NOC(c3ccc(Cl)cc3)N2C23CC4CC(CC(C4)C2)C3)cc1 (configuration not stated) > 100 µM

Try the compound CCOC(=O)C(NO)C(Sc1ccccc1)c1ccc(OC)cc1 (configuration not stated) > 100 µM

Try the compound `CCCCCCNC(=S)N/N=C(\C)c1ccccn1` 8.97 µM

Try the compound CC(C)CC1c2[nH]c3ccccc3c2C[C@H]2C(=O)NC(CCCCNC(=O)OC(C)(C)C)C(=O)N12 (some centres not stated) > 100 µM
